Biological target: T1, human IL-10 receptor (hIL-10R alpha and beta chains) on HEK-Blue IL-10 reporter cells (human, UniProt Q13651 22-578; Q08334 20-325)
T1 sequence 1: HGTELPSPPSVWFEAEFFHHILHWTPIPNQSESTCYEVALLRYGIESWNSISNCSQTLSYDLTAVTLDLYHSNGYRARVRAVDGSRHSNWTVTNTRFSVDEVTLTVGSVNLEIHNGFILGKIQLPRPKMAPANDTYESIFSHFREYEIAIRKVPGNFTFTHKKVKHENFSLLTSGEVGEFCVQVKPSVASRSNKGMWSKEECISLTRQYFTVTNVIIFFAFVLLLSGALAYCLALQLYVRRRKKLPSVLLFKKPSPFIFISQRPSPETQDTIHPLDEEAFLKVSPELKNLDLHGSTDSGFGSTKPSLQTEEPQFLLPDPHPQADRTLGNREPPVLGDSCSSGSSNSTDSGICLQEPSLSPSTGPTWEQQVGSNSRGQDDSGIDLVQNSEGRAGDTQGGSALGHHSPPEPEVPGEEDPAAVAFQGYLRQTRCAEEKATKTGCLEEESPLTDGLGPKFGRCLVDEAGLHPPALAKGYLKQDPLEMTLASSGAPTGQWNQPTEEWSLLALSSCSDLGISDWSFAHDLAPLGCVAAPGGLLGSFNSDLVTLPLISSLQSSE
T1 sequence 2: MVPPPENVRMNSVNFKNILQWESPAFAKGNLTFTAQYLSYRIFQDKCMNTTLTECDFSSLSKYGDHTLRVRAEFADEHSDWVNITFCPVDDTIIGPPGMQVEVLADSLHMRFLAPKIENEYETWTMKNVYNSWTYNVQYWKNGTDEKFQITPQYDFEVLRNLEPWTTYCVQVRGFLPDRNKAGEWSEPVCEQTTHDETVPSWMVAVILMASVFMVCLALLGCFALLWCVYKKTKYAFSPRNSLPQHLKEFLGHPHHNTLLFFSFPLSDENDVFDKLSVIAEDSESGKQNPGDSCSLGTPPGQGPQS
Assay: cell-based or functional assay
Tick yes (1) if Abs 630 (100 nM) is 0.4 Abs 630 or greater. Tick no (0) if Abs 630 (100 nM) is less than 0.4 Abs 630.

binder	assigned_class
IL10R binding molecule of SEQ ID NO: 296 (bispecific antibody) QVQLQESGGGSVQAGGSLRLSCGASGYTYSSYCMGWFRQVPGKEREGVAVIDSDGSTSYADSVKGRFTISKDNGKNTLYLQMNSLKPEDTAMYYCAADLGHYRPPCGVLYLGMDYWGKGTQVTVSSGGGSQVQLQESGGGSVQAGGSLRLSCAASGYSYSSYCMGWFRQAPGKEREGVATIDSDGMTRYADSVKGRFTISKDNAKNTLYLQMNSLKPEDTAMYYCAAPLYDCDSGAVGRNPPYWGQGTQVTVSSASHHHHHH	no (0)
IL10R binding molecule of SEQ ID NO: 318 (bispecific antibody) QVQLQESGGGSVQAGGSLRLSCAASGYTYSSYCMGWFRQAPGKEREGVAHIDSDGSTSYADSVKGRFTISKDNAKNTLYLQMNSLKPEDTAMYYCAADPIPGPGYCDGGPNKYWGQGTQVTVSSGGGSQVQLQESGGGSVQAGGSLRLSCAASGYSNCSYDMTWYRQAPGKEREFVSAIHSDGSTRYADSVKGRFFISQDNAKNTVYLQMNSLKPEDTAMYYCKTDPLHCRAHGGSWYSVRANYWGQGTQVTVSSASHHHHHH	yes (1)
IL10R binding molecule of SEQ ID NO: 339 (bispecific antibody) QVQLQESGGGSVEAGGSLRLSCAASGYTHSSYCMGWFRQAPGKEREGVAAIDVDGSTTYADSVKGRFTISKDNAKNTLYLQMNSLKPEDTGMYYCAAEFADCSSNYFLPPGAVRYWGQGTQVTVSSGGGSQVQLQESGGGSVQAGGSLRLSCAASGYSNCSYDMTWYRQAPGKEREFVSAIHSDGSTRYADSVKGRFFISQDNAKNTVYLQMNSLKPEDTAMYYCKTDPLHCRAHGGSWYSVRANYWGQGTQVTVSSASHHHHHH	yes (1)

stdin: Does the reported Abs 630 (100 nM) for IL10R binding molecule of SEQ ID NO: 290 (bispecific antibody) QVQLQESGGGSVQAGGSLRLSCTVSGYTYSSNCMGWFRQAPGKEREGVATIYTGGGNTYYADSVKGRFTISQDNAKNTVYLQMNNLKPEDTAMYYCAAEPLSRVYGGSCPTPTFDYWGQGTQVTVSSGGGSQVQLQESGGGSVQTGGSLRLSCAASGYTYLRGCMGWFRQAPGKEREGVAVMDVVGDRRSYIDSVKGRFTISRDNAANSVYLQMDNLKPEDTAMYYCTAGPNCVGWRSGLDYWGQGTQVTVSSASHHHHHH fall at or above the 0.4 Abs 630 mark?
stdout: no (0)

stdin: Does the reported Abs 630 (100 nM) for IL10R binding molecule of SEQ ID NO: 326 (bispecific antibody) QVQLQESGGGSVQAGGSLRLSCTVSRYTASVNYMGWFRQAPGKEREGVATIFTGAGTTYYANSVKGRFTISRDNAKNTAYLQMNSLKPEDTAIYYCAVDFRGGLLYRPAYEYTYRGQGTQVTVSSGGGSQVQLQESGGGSVQAGGSLRLSCAASRYLYSIDYMAWFRQSPGKEREPVAVIYTASGATFYPDSVKGRFTISQDNAKMTVYLQMNSLKSEDTAMYYCAAVRKTDSYLFDAQSFTYWGQGTQVTVSSASHHHHHH fall at or above the 0.4 Abs 630 mark?
stdout: yes (1)

stdin: Does the reported Abs 630 (100 nM) for IL10R binding molecule of SEQ ID NO: 257 (bispecific antibody) QVQLQESGGGSVQAGGSLRLSCAASRYLYSIDYMAWFRQSPGKEREPVAVIYTASGATFYPDSVKGRFTISQDNAKMTVYLQMNSLKSEDTAMYYCAAVRKTDSYLFDAQSFTYWGQGTQVTVSSGGGSQVQLQESGGGSVQAGGSLRLSCAASGYTYSSYCMGWFRQAPGKEREGVAHIDSDGSTSYADSVKGRFTISKDNAKNTLYLQMNSLKPEDTAMYYCAADPIPGPGYCDGGPNKYWGQGTQVTVSSASHHHHHH fall at or above the 0.4 Abs 630 mark?
stdout: no (0)

stdin: Does the reported Abs 630 (100 nM) for IL10R binding molecule of SEQ ID NO: 258 (bispecific antibody) QVQLQESGGGSVQAGGSLRLSCAASRYLYSIDYMAWFRQSPGKEREPVAVIYTASGATFYPDSVKGRFTISQDNAKMTVYLQMNSLKSEDTAMYYCAAVRKTDSYLFDAQSFTYWGQGTQVTVSSGGGSQVQLQESGGGSVQAGGSLRLSCAASRYTYNSYCMGWFRQAPGKEREGVATIDSDGMTRYADSVKGRFTISKDNAKNTLYLQMNSLKPEDTAMYYCAADADCTIAAMTTNPLGQGTQVTVSSASHHHHHH fall at or above the 0.4 Abs 630 mark?
stdout: no (0)

stdin: Does the reported Abs 630 (100 nM) for IL10R binding molecule of SEQ ID NO: 280 (bispecific antibody) QVQLQESGGGSVQAGGSLRLSCAVSGYAYSTYCMGWFRQAPGKEREGVAAIDSGGSTSYADSVKGRFTISKDNAKNTLYLRMNSLKPEDTAMYYCAAVPPPPDGGSCLFLGPEIKVSKADFRYWGQGTQVTVSSGGGSQVQLQESGGGSVQAGGSLRLSCTVSRYTASVNYMGWFRQAPGKEREGVATIFTGAGTTYYANSVKGRFTISRDNAKNTAYLQMNSLKPEDTAIYYCAVDFRGGLLYRPAYEYTYRGQGTQVTVSSASHHHHHH fall at or above the 0.4 Abs 630 mark?
stdout: no (0)
